Target: Myeloid Cell Leukemia 1(Mcl-1) (Homo sapiens (Human), UniProt Q07820)
Sequence (Q07820 whole entry): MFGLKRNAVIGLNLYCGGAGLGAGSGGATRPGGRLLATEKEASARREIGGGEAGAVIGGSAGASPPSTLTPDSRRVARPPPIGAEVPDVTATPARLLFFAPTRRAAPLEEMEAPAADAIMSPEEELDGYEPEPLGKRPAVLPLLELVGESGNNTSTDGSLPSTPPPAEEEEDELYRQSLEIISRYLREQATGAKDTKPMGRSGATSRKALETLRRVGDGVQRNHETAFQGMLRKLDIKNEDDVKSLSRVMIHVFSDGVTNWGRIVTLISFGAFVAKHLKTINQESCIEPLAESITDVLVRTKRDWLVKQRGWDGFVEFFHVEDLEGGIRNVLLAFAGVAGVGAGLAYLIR
Assay: Terbium labeled Mcl-1 HTRF binding assay with Cy5-labeled BIM BH3 peptide
Conditions: first table; [L]=8 nM, Kd=10 nM; before recalibration of the equipment
From the text: Terbium labeled Myeloid Cell Leukemia 1(Mcl-1) homogeneous time-resolved fluorescence (HTRF) binding assay utilizing the BIM BH3 peptide (H2N-(C/Cy5Mal) WIAQELRRIGDEFN-OH) as the binding partner for Mcl-1. This assay evaluated inhibition of the BH3 domain: Mcl-1 interaction by measuring the displacement of Cy5-labeled BIM BH3 peptide (H2N—(C/Cy5Mal) WIAQELRRIGDEFN-OH) in the HTRF assay format. […]
Exercise: state measured Ki for each of the compounds provided.
Lab book: enter the figure in nM, no units written.

GET /value?item= `C[C@@H]1[C@@H](C)C/C=C(\F)[C@H](COCC(=O)N2CCOCC2)N2CC[C@H]2CN2C[C@@]3(CCCc4cc(Cl)ccc43)COc3ccc(cc32)C(=O)NS1(=O)=O` &field=Ki returns 0.24

GET /value?item= `C[C@@H]1[C@@H](C)C/C=C(\F)[C@H](COCCC2CCOCC2)N2CC[C@H]2CN2C[C@@]3(CCCc4cc(Cl)ccc43)COc3ccc(cc32)C(=O)NS1(=O)=O` &field=Ki returns 1.52

GET /value?item= `C[C@@H]1[C@@H](C)C/C=C(\F)[C@H](COCC(=O)N2CC(F)(F)C2)N2CC[C@H]2CN2C[C@@]3(CCCc4cc(Cl)ccc43)COc3ccc(cc32)C(=O)NS1(=O)=O` &field=Ki returns 0.43

GET /value?item= `C[C@@H]1[C@@H](C)C/C=C(\F)[C@H](CO)N2CC[C@H]2CN2C[C@@]3(CCCc4cc(Cl)ccc43)COc3ccc(cc32)C(=O)NS1(=O)=O` &field=Ki returns 0.22
